Where these numbers come from: ChEMBL document CHEMBL1201862

# key: entry, value: GI50
Test system: HOP-92
EXPERIMENTAL PROTOCOL: NCI tumour cell line growth inhibition, 48 h
Activity calls are given as the source filed them. No stated cut-off is given here; in the data, active = GI50 up to about 1.1 µM and inactive = higher.
RECORDED METRIC: GI50

{"columns": ["COMPOUND", "VALUE"],
 "data": [
  ["COP1(=S)OCC2CCC[C@@H]2O1 (some centres undefined)", "> 100 µM (inactive)"],
  ["N#CC(N)(C(=O)C(=O)NCCCNC(=O)C(=O)C(N)(C#N)c1ccc(Cl)cc1)c1ccc(Cl)cc1 (centres undefined)", "> 100 µM (inactive)"],
  ["Cc1c2c(cc3c1[nH]c1ccccc13)C(c1ccc(F)cc1)=NCC2", "1.44 µM (inactive)"],
  ["O=c1ccc(=O)n(-c2ccccc2)[nH]1", "> 100 µM (inactive)"],
  ["NS(=O)(=O)c1ccc(NC(=O)COC(=O)c2cccc3c(=O)c4ccccc4[nH]c23)cc1", "16.5 µM (inactive)"],
  ["O=C1N/C(=N/N=C\\c2ccccc2)N/C1=C/c1ccccc1", "22.2 µM (inactive)"],
  ["COc1cc(S(=O)(=O)Nc2ccc(-c3csc(N)n3)cc2)ccc1Cl", "22.6 µM (inactive)"],
  ["COc1cc([C@@H]2c3cc4c(c(O[C@@H]5O[C@H]6CO[C@@H](C)O[C@H]6[C@H](O)[C@@H]5O)c3C[C@H]3COC(=O)[C@@H]32)OCO4)cc(OC)c1O", "25.7 µM (inactive)"],
  ["COc1ccc2cc(CNCCCCCCCCNCc3ccc4cc(OC)ccc4c3)ccc2c1", "5.32 µM (inactive)"]
]}
